# System: HT29 colon
# experimental.protocol: NCI-60 one-dose screen, 48 h (100 = growth as untreated, 0 = no growth, -100 = all killed)
# condition.details: 10 µM unless noted
This is part of a sample that, as a whole, favours compounds with a hit. Of some 83,000 tested, about 20% had one in any assay.
attribute.measured: growth (%)

1) N#Cc1c(-c2ccccc2)nc(SCC(=O)Nc2nc(-c3ccc(Cl)cc3)cs2)[nH]c1=O	93.3
2) Cc1ccc(/C=N\NC(=O)c2[nH]c3ccc(F)cc3c2-c2ccccc2)cc1	2.07
3) COc1ccc2nc(NC(=O)c3cccnc3Nc3ccc(S(N)(=O)=O)cc3)sc2c1	106
4) CCN(CC)CCNC(=O)c1cn2ncnc(Oc3ccc(NC(=O)Nc4ccc(Cl)c(C(F)(F)F)c4)cc3)c2c1C	-68.2
5) CN1CCN(Cc2ccc(NC(=O)c3ccc(C(C)(C)C)c(C#Cc4cnc5cccnn45)c3)cc2C(F)(F)F)CC1	-83.5
6) Cc1cc2[nH]c(=O)c3c4ncccc4cn3c2cc1C	-23.7
7) C=CCNc1ccc2c3c(cccc13)C(=O)N(N1C(=O)c3cccc4cccc(c34)C1=O)C2=O	103
8) O=C(Nc1ccc(Br)cc1F)c1cc(Br)ccc1O	59.3
9) O=C(CCN1C(=O)/C(=C/c2ccc(O)cc2)SC1=S)Nc1ccc(Cl)cc1	108

----------
# Tested on: SNB-75 CNS
# experimental.protocol: NCI-60 one-dose screen, 48 h (100 = growth as untreated, 0 = no growth, -100 = all killed)
# condition.details: 10 µM unless noted
About 83,000 compounds went through this panel and 20% of them were active in at least one assay; those are over-represented in the sample as a whole.
attribute.measured: growth (%)

1. C/C(=N/NC(N)=S)c1sc(Nc2cccc(Cl)c2)nc1C	120
2. O=C(Nn1c(NCC(=O)N2c3ccccc3Sc3ccccc32)nnc1-c1ccc(O)cc1)c1ccccc1	102
3. NC1CCN(c2nc(Nc3cccc(C(F)(F)F)c3)c3c(=O)[nH]ccc3n2)CC1	-76.8
4. COc1cc(/C=C/c2ccccc2)cc(OC)c1	93.1
5. CC[C@H](C)C(=O)O[C@H]1CCC=C2C=C[C@H](C)[C@H](CC[C@@H]3CC=CC(=O)O3)[C@H]21	68.9
6. CCN1C(=O)N(CC)C2Nn3c(s/c(=C4\C(=O)Nc5ccccc54)c3=O)=NC21 (stereo not given)	19.3
7. Oc1ccc(CCl)c2cccnc12	64.7
8. Brc1c[n+](Cc2ccc3ccccc3c2)cn1Cc1ccc2ccccc2c1	-30.8
9. COc1ccc(C(=O)COC(=O)[C@H](C[Se][Se]C[C@H](NC(=O)c2ccc(Br)cc2F)C(=O)OCC(=O)c2ccc(OC)cc2)NC(=O)c2ccc(Br)cc2F)cc1	-95.6
10. NC(=O)C1(Nc2ccc(Br)cc2)CCCC1	93.2

----------
# Tested on: OVCAR-8 ovarian
# experimental.protocol: NCI-60 one-dose screen, 48 h
# condition.details: 10 µM unless noted
The panel holds about 83,000 compounds, 20% with a hit somewhere; the sample as a whole holds those more often. Active and inactive are the calls of the source. Rule for the calls: active = growth percent below 10; inactive = the rest.
Possible outcomes: label 1 (active), label 0 (inactive)

1) O=C(Cc1ccc(F)c(Cl)c1)Nc1cc(C2(C(F)(F)F)CC2)nn1Cc1ccccc1	label 0
2) CC(=O)OC[C@H]1OC(Sc2sc(C(=O)c3ccc(Cl)cc3)c(N)c2-c2nc3ccccc3s2)[C@H](OC(C)=O)[C@@H](OC(C)=O)[C@@H]1OC(C)=O (stereo partly drawn)	label 0
3) CCn1cnc2c1c(=O)[nH]c(=O)n2CC1CCC(CNS(=O)(=O)c2ccc(OC3CCOCC3)c(F)c2)CC1 (stereo not drawn)	label 0
4) COc1ccc(C(=O)N=Nc2c(O)n(C)c3ccccc23)cc1	label 0
5) COc1cc(OCc2cccc(-c3ccc(C(O)c4nccs4)cc3)c2C)cc(OC)c1CNCCNC(C)=O (stereo not drawn)	label 0
6) CCCCC1CCCC12NC(=O)NC2=O (stereo not drawn)	label 0
7) COc1cc(/C=C/c2c(C(C)=O)c(C)nc3ccccc23)cc(OC)c1OC	label 0
8) COc1cccc2c(=O)c3c(sc12)c(N1CCNCC1)nc1ccccc13	label 0
9) O=C(CCCCCCSc1nc(-c2ccccc2)cc(-c2ccccc2)n1)NO	label 0
10) NC[C@@H]1O[C@H](O[C@@H]2[C@@H](CO)OC(O[C@@H]3[C@@H](O)[C@H](N)C[C@H](N)[C@H]3OC3O[C@H](CN)[C@@H](O)[C@H](O)[C@H]3N)[C@@H]2O)[C@H](N)[C@@H](O)[C@@H]1O (stereo partly drawn)	label 0
11) CN(C)c1ccc(/C=N\Nc2cc(=O)[nH]c3ccc(Cl)cc23)cc1	label 0
12) O=C(/C=C/c1sc(Cl)nc1Cl)c1ccccc1	label 0
13) COc1ccc2c(c1)c(-c1ccc(-c3cn(C)c4ccc(OC)cc34)o1)cn2C	label 0
14) C#C[C@]1(O)CC[C@H]2[C@@H]3CC=C4c5sc(Nc6cc(F)ccc6F)nc5CC[C@]4(C)[C@H]3CC[C@@]21C	label 0
15) COc1c(B(O)O)cc(F)cc1-c1nc2ccc3[nH]ncc3c2c2c1CCCC2	label 0
16) NCCOc1ncccc1/C=C1\C2C=CC=CC2C2C=CC(F)=CC12 (stereo not drawn)	label 0
17) CCOC(=O)Cn1c(=O)c2c(c3ccccc3n2C)n2nnc(-c3ccccc3)c12	label 0
18) Cc1nc2ccccc2c(/C=C/c2ccccc2)c1C(=O)/C=C/c1ccc(C(F)(F)F)cc1	label 0
19) O=C(Cc1ccc(F)c(Cl)c1)Nc1cc(C2(C(F)(F)F)CC2)nn1CC1CCCCC1	label 1
20) CCOC(=O)CC1C(COC(=O)NC)OC(n2cnc3c(NC(=O)Nc4ccccc4)ncnc32)C1O[Si](C)(C)C(C)(C)C (stereo not drawn)	label 0
21) Cc1cccc2c3c(sc12)C(c1ccc(F)cc1)C(C#N)=C(N)O3 (stereo not drawn)	label 0
22) CCN1C(=O)N(CC)C2Nn3c(s/c(=C\c4ccc([N+](=O)[O-])cc4)c3=O)=NC21 (stereo not drawn)	label 0
23) NC(=O)Nc1ccc2ncnc(Nc3ccc(Cl)cc3)c2c1	label 0
24) CCCCCCCCCCCCCCCCCCOc1ccccc1CCCOP(=O)(O)OCC[N+](C)(C)C	label 0
25) NCCCNc1nc2ccccc2c2c(=O)c3cc(OC(F)(F)F)ccc3sc12	label 1
26) O=C(S)CNC(=O)c1ccccc1	label 0
27) COc1cc2cc(Oc3ccc(NC(=O)Nc4cc(C(F)(F)F)cc(C(F)(F)F)c4)cc3)c(C)nc2cc1OCCN1CCOCC1	label 0
28) CCCCC[C@H](O)C/C=C1/C(=O)C=C[C@@H]1C/C=C\CCCC(=O)O	label 0
29) COc1ccc(C2C(C#N)=C(N)Oc3c2sc2c(C)cccc32)cc1 (stereo not drawn)	label 0
30) CCc1cccc2c1S/C(=C/c1ccc(Cl)cc1)C2=O	label 0
31) COc1ccc(N2C(=O)C(Oc3ccccc3)C2c2ccc(C)cc2)cc1 (stereo not drawn)	label 0
32) COc1cc2cc(Oc3ccc(NC(=O)Nc4ccc(Cl)c(C(F)(F)F)c4)cc3)c(C)nc2cc1OCCN1CCOCC1	label 0
33) O=C(N/N=C/[C@H](O)[C@@H](O)[C@@H](O)[C@H](O)CO)c1ccc(NC(=O)c2cccnc2)cc1	label 0
34) O=CN1N=C(c2ccc(Nc3ccnc4cc(Cl)ccc34)cc2)CC1c1ccccc1 (stereo not drawn)	label 0
35) COC(=O)CCC/C=C\C[C@H]1C=CC(=O)/C1=C/C[C@@H](O)CCc1cccc(C(F)(F)F)c1	label 1
36) Cc1cc(O)c(C2=NN(c3ccc(S(N)(=O)=O)cc3)C(c3ccccc3O)C2)cc1Cl (stereo not drawn)	label 1
37) COc1ccc(OC)c(/C=C/c2nnc(Nc3ccccc3)o2)c1	label 0
38) CC1=C(C)C(=O)C(Nc2cccc(C(=O)OC(C)(C)C)c2)=C(Br)C1=O	label 0
